Each recorded value in this set is attributed to patent US20240400560A1.

target: SARS-CoV-2 3CL protease (Severe acute respiratory syndrome coronavirus 2); test: Inhibitory activity test against SARS-CoV-2 3CL proteases; type: biochemical; conditions: read-out: IC50 (50% SARS-CoV-2 3CL protease inhibitory concentration)
pIC50: −log10 of the molar value.
Readout Name: pIC50

Worked cases, pIC50 given:
>>> assay_result("COc1cc(-c2cc(CC(=O)NC3CCN(C)CC3)ccc2Cl)cc2c1c(=O)n(-c1cncc(Cl)c1)c(=O)n2Cc1cc(Cl)ccc1C")
8.30
>>> assay_result("COc1nc(N2CCOCC2)cc2c1c(=O)n(-c1cncc(Cl)c1)c(=O)n2-c1ccc(F)c(Cl)c1")
"> 7.00"
>>> assay_result("Cn1cnc(Cn2c(=O)c3c(F)cc(-c4cc5c(cc4Cl)NC(=O)C5)cc3n(Cc3cc(F)c(F)cc3F)c2=O)n1")
"> 7.00"

# next compound below
Give recorded pIC50. COc1nc2c(=O)n(Cc3ncn(C)n3)c(=O)n(Cc3cc(C#N)ccc3C)c2cc1-c1cc(C#N)ccc1Cl
> 7.00
